measured-metric: boiling point (°C)
Please reply with the bare figure in °C and do not write the unit itself.

If you can, please state the reported boiling point value of COc1cc(Cl)c(OC)cc1Cl .
268

If you can, please state the reported boiling point value of N#Cc1ccc(Br)cc1 .
236

If you can, please state the reported boiling point value of c1ccn2cccc2c1 .
205

If you can, please state the reported boiling point value of Fc1ccccc1C(F)(F)F .
114

If you can, please state the reported boiling point value of FC(F)(F)C(F)(Cl)C(Cl)(Cl)C(F)(F)F (configuration not stated) .
98

If you can, please state the reported boiling point value of CCSCC(C)C .
134

If you can, please state the reported boiling point value of CC(=O)c1ccc(C)c(C)c1 .
246

If you can, please state the reported boiling point value of CCC(C)C(C)(CC)CC (configuration not stated) .
162

If you can, please state the reported boiling point value of FC(F)(F)C(F)(F)C(F)(F)C(F)(F)N(C(F)(F)C(F)(F)C(F)(F)C(F)(F)F)C(F)(F)C(F)(F)C(F)(F)C(F)(F)F .
178

If you can, please state the reported boiling point value of Cc1ccc(C)s1 .
136

If you can, please state the reported boiling point value of CCOC .
7.4

If you can, please state the reported boiling point value of Cc1ccccc1CO .
224

If you can, please state the reported boiling point value of Cc1cc(O)c(C(C)C)cc1Cl .
258

If you can, please state the reported boiling point value of Cc1cc(O)cc(C)c1Cl .
246

If you can, please state the reported boiling point value of ClCC(Cl)(Cl)Cl .
130

If you can, please state the reported boiling point value of C=CCCC(=O)O .
188

If you can, please state the reported boiling point value of CC(=O)Nc1ccccc1C .
296

If you can, please state the reported boiling point value of ClC1=C(Cl)C2(Cl)C3C(Cl)C=CC3C1(Cl)C2(Cl)Cl (configuration not stated) .
310

If you can, please state the reported boiling point value of C#CC(C)(C)O .
104

If you can, please state the reported boiling point value of CC(C)SC(C)C .
120

If you can, please state the reported boiling point value of FC(F)(I)C(F)(F)C(F)(F)C(F)(F)I .
150

If you can, please state the reported boiling point value of ClC(c1ccccc1)(c1ccccc1)c1ccccc1 .
310

If you can, please state the reported boiling point value of C[Si]1(C)O[Si](C)(C)O[Si](C)(C)O1 .
134

If you can, please state the reported boiling point value of CN(C)B(F)N(C)C .
106

If you can, please state the reported boiling point value of CCN(CC)c1ccccc1 .
216

If you can, please state the reported boiling point value of CCOc1ccccc1OCC .
219

If you can, please state the reported boiling point value of Fc1ccncc1 .
109

If you can, please state the reported boiling point value of COC(=O)c1cccc(C(=O)OC)c1 .
282

If you can, please state the reported boiling point value of CS(=O)(=O)F .
124

If you can, please state the reported boiling point value of ClCC=C(Cl)Cl .
132

If you can, please state the reported boiling point value of C=COC(=O)C=C .
91

If you can, please state the reported boiling point value of CCOC(=O)C(C(=O)OCC)C(C)C .
215

If you can, please state the reported boiling point value of CC(C)Nc1ccccc1 .
203

If you can, please state the reported boiling point value of CN=C=O .
39.5

If you can, please state the reported boiling point value of O=[N+]([O-])c1ccccc1-c1ccccc1[N+](=O)[O-] .
305

If you can, please state the reported boiling point value of c1ccc2c(c1)Cc1c-2ccc2ccccc12 .
405

If you can, please state the reported boiling point value of CC(C)c1ccc(Br)cc1 .
219

If you can, please state the reported boiling point value of Brc1cc(Br)c(Br)s1 .
260

If you can, please state the reported boiling point value of CC(C)N(C)C .
66

If you can, please state the reported boiling point value of C/C=C/CCC .
66.5

If you can, please state the reported boiling point value of O=c1ccocc1 .
212

If you can, please state the reported boiling point value of Cc1cc(C)c(O)c(C)c1C .
240

If you can, please state the reported boiling point value of NCc1cccnc1 .
226

If you can, please state the reported boiling point value of Cc1ccc(S)cc1 .
195

If you can, please state the reported boiling point value of CI .
42.5

If you can, please state the reported boiling point value of CCc1cnccn1 .
152

If you can, please state the reported boiling point value of Cc1cc(C)c(C)c(C)n1 .
203

If you can, please state the reported boiling point value of O=C(Cl)c1ccco1 .
173

If you can, please state the reported boiling point value of C=CC[C@H](C)O .
116

If you can, please state the reported boiling point value of Cc1ccc(O)c(C(C)C)c1 .
228

If you can, please state the reported boiling point value of CCCCCCCCCCCCC(=O)O .
312

If you can, please state the reported boiling point value of CCC(C(C)C)C(C)C .
137

* * *

Please go through the items and note down their log10 Henry constant (atm·m³/mol).
When you answer, write just the number.

If you can, please state the reported log10 Henry constant (atm·m³/mol) value of Clc1cccc(-c2cc(Cl)ccc2Cl)c1 .
-3.7

If you can, please state the reported log10 Henry constant (atm·m³/mol) value of C=CC=O .
-3.91

If you can, please state the reported log10 Henry constant (atm·m³/mol) value of c1ccc2c(c1)CCC2 .
-3.7

If you can, please state the reported log10 Henry constant (atm·m³/mol) value of Clc1cccc(-c2cccc(Cl)c2Cl)c1 .
-3.8

If you can, please state the reported log10 Henry constant (atm·m³/mol) value of CS(=O)(=O)c1cc(C(F)(F)F)ccc1C(=O)c1cnoc1C1CC1 .
-9.73

If you can, please state the reported log10 Henry constant (atm·m³/mol) value of Clc1ccc2c(c1)Oc1cc(Cl)c(Cl)c(Cl)c1O2 .
-5.12

If you can, please state the reported log10 Henry constant (atm·m³/mol) value of CCSC(=O)N1CCCCCC1 .
-5.39

If you can, please state the reported log10 Henry constant (atm·m³/mol) value of CNc1ccccc1 .
-5.05

If you can, please state the reported log10 Henry constant (atm·m³/mol) value of Clc1cc(-c2cc(Cl)c(Cl)c(Cl)c2Cl)c(Cl)c(Cl)c1Cl .
-5

If you can, please state the reported log10 Henry constant (atm·m³/mol) value of CC(=O)C(F)(F)F .
-5.11

If you can, please state the reported log10 Henry constant (atm·m³/mol) value of C#CC(C)(C)O .
-5.41

If you can, please state the reported log10 Henry constant (atm·m³/mol) value of O=CCO .
-7.62

If you can, please state the reported log10 Henry constant (atm·m³/mol) value of S=C=S .
-1.84

If you can, please state the reported log10 Henry constant (atm·m³/mol) value of O=C(NC(=O)c1c(F)cccc1F)Nc1cc(Cl)c(Oc2ncc(C(F)(F)F)cc2Cl)c(Cl)c1 .
-11.7

If you can, please state the reported log10 Henry constant (atm·m³/mol) value of CCCc1ccccc1 .
-1.98

If you can, please state the reported log10 Henry constant (atm·m³/mol) value of Clc1cccc(-c2c(Cl)c(Cl)cc(Cl)c2Cl)c1Cl .
-4.31

If you can, please state the reported log10 Henry constant (atm·m³/mol) value of CC(C)(C)O .
-5.04

If you can, please state the reported log10 Henry constant (atm·m³/mol) value of Clc1cccc(-c2ccccc2Cl)c1 .
-3.6

If you can, please state the reported log10 Henry constant (atm·m³/mol) value of Nc1ccccc1 .
-5.69

If you can, please state the reported log10 Henry constant (atm·m³/mol) value of CCCc1ccc(O)cc1 .
-5.94

If you can, please state the reported log10 Henry constant (atm·m³/mol) value of ClCC(Cl)(Cl)Cl .
-2.6

If you can, please state the reported log10 Henry constant (atm·m³/mol) value of Clc1cc(-c2c(Cl)cc(Cl)c(Cl)c2Cl)c(Cl)c(Cl)c1Cl .
-5

If you can, please state the reported log10 Henry constant (atm·m³/mol) value of CNC(=O)Oc1cc(C)c(SC)c(C)c1 .
-8.93

If you can, please state the reported log10 Henry constant (atm·m³/mol) value of Clc1cccc(Cl)c1-c1c(Cl)cccc1Cl .
-3.7

* * *

measured-metric: melting point (°C)
Please reply with the bare figure in °C and do not write the unit itself.

If you can, please state the reported melting point value of O=S1(=O)CCCCO1 .
13.5

If you can, please state the reported melting point value of O=C1CCCCCCCCC1=O .
40.5

If you can, please state the reported melting point value of C=COCC(CC)CCCC (configuration not stated) .
-100

If you can, please state the reported melting point value of CC(C)(Oc1ccc(Cl)cc1)C(=O)OCc1cccnc1 .
48.5

If you can, please state the reported melting point value of O=[N+]([O-])c1cc([N+](=O)[O-])c(F)cc1F .
73

If you can, please state the reported melting point value of CC1OC1C (configuration not stated) .
-82.5

If you can, please state the reported melting point value of CCOC(=O)c1c[nH]c(=S)[nH]c1=O .
252

If you can, please state the reported melting point value of CCOc1ccc(Cc2nc(C)cc3cc(OC)c(OC)cc23)cc1OC .
124

If you can, please state the reported melting point value of O=C(O)C(O)C(=O)O .
157

If you can, please state the reported melting point value of C[Si](O)(c1ccccc1)c1ccccc1 .
167

If you can, please state the reported melting point value of FC(F)(Br)C(F)(F)Br .
-110

If you can, please state the reported melting point value of O=[N+]([O-])c1cc(Cl)cc(Cl)c1O .
122

If you can, please state the reported melting point value of Cc1cc([N+](=O)[O-])ccc1Cl .
42.5

If you can, please state the reported melting point value of NC(=O)Nc1cccc2ccccc12 .
220

If you can, please state the reported melting point value of COP(=O)(OC)OC .
-46

If you can, please state the reported melting point value of Cc1cccc2ccccc12 .
-30.4

If you can, please state the reported melting point value of OCCN(CCO)c1nc(N2CCCCC2)c2nc(N(CCO)CCO)nc(N3CCCCC3)c2n1 .
163

If you can, please state the reported melting point value of CC1CCSCC1 .
-28

If you can, please state the reported melting point value of Cc1ccccc1N(C)C .
-60

If you can, please state the reported melting point value of Cc1ccc(Cl)c(Cl)c1 .
-15.2

If you can, please state the reported melting point value of CC(C)(C)[C@@H](O)[C@H](Cc1ccc(Cl)cc1Cl)n1cncn1 .
148

If you can, please state the reported melting point value of Clc1ccc(Cl)cc1 .
52.1

If you can, please state the reported melting point value of CC(Oc1ccc(Oc2cnc3cc(Cl)ccc3n2)cc1)C(=O)OCC1CCCO1 (configuration not stated) .
64

If you can, please state the reported melting point value of NC(=O)c1cc([N+](=O)[O-])cc([N+](=O)[O-])c1 .
184

If you can, please state the reported melting point value of NS(=O)(=O)c1ccc(N2C(=O)CC(c3ccccc3)C2=O)c(Cl)c1 (configuration not stated) .
206

If you can, please state the reported melting point value of C=C(C)CCC(=C)C .
-75.6

If you can, please state the reported melting point value of O=C(O)Cc1ccc2ccccc2c1 .
142

If you can, please state the reported melting point value of CN[C@@H](C)Cc1ccccc1.Cl .
172

If you can, please state the reported melting point value of C=CCC1=C(C)C(OC(=O)C2C(C=C(C)C)C2(C)C)CC1=O (configuration not stated) .
-40

If you can, please state the reported melting point value of CCCCCCCC(=O)Oc1c(Br)cc(C#N)cc1Br .
45.5

If you can, please state the reported melting point value of O=c1[nH]cnc2c1ncn2[C@H]1CC[C@@H](CO)O1 .
162

If you can, please state the reported melting point value of CCCCCCc1ccc2c(c1)CCC2 .
-34

If you can, please state the reported melting point value of CC(=O)Nc1ccc(C)cc1C .
129

If you can, please state the reported melting point value of NCCO.O=C(Nc1ccc([N+](=O)[O-])cc1Cl)c1cc(Cl)ccc1O .
216

If you can, please state the reported melting point value of Brc1c(Br)c(Br)c2c(c1Br)Oc1c(Br)c(Br)c(Br)c(Br)c1O2 .
376

If you can, please state the reported melting point value of CC(=O)OCCOCCOCCOC(C)=O .
-50

If you can, please state the reported melting point value of CCCCCCCCS .
-49.2

If you can, please state the reported melting point value of C=CC[C@@H](C)CC .
-142

If you can, please state the reported melting point value of C[N+](C)(C)CCOC(=O)CCC(=O)OCC[N+](C)(C)C.[I-].[I-] .
244

If you can, please state the reported melting point value of Cc1c([N+](=O)[O-])cc2c(c1[N+](=O)[O-])C(C)(C)CC2(C)C .
132

If you can, please state the reported melting point value of C[Si](Cn1cncn1)(c1ccc(F)cc1)c1ccc(F)cc1 .
54

If you can, please state the reported melting point value of C=C[C@H]1C[N@@]2CC[C@H]1C[C@H]2[C@H](O)c1ccnc2ccc(O)cc12 .
202

If you can, please state the reported melting point value of C[C@H](NC(=O)c1ccccc1)C(=O)O (racemic) .
166

If you can, please state the reported melting point value of CC1=NCCS1 .
-101

If you can, please state the reported melting point value of COC(=O)C1(S(=O)(=O)c2ccc([N+](=O)[O-])cc2)CC1 .
127

If you can, please state the reported melting point value of NC(=O)c1cccc([N+](=O)[O-])c1 .
143

If you can, please state the reported melting point value of O=C(O)CCCCCC1NC(=O)CS1 (configuration not stated) .
140

If you can, please state the reported melting point value of Oc1ccc([C@H]2COc3cc(O)ccc3C2)cc1 .
190

If you can, please state the reported melting point value of Cc1cc(Cl)c(C)cc1Cl .
71

If you can, please state the reported melting point value of CCc1cc(C)ccc1C .
-53.7

If you can, please state the reported melting point value of C=C1/C(=C/C=C2/CCC[C@]3(C)[C@@H]([C@H](C)CCCC(C)C)CC[C@@H]23)C[C@@H](O)C[C@@H]1O .
136

If you can, please state the reported melting point value of Cc1cc(NS(=O)(=O)c2ccc(N)cc2)sn1 .
192

Recorded values, source the OPERA property sets (Mansouri et al. 2018).
